Can you tell me viability for the items I'm about to list?
Protocol Description: HUVEC growth inhibition – cell-based, human, primary screen (AID 575);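 also: 100% = median of untreated cell wells with 0.1% DMSO on each plate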
Reported Conditions: HUVEC proliferation, CellTiter-Glo luminescence, 72 h; at 10 µM; hits give low values
Answer format: numeric, % implied, no suffix.

GET /value?item= `Cn1c(N2CCC(C(N)=O)CC2)nc2c1c(=O)n(Cc1ccc(Br)cc1)c(=O)n2C` &field=viability returns 98.5

GET /value?item= `CC(=O)OCC(=O)[C@@]1(OC(C)=O)[C@@H](C)C[C@H]2[C@@H]3C[C@H](F)C4=CC(=O)C=C[C@]4(C)[C@@]3(F)[C@@H](O)C[C@@]21C` &field=viability returns 102

GET /value?item= `CCN1CCN(C(=O)N[C@@H](C(=O)N[C@@H]2C(=O)N3[C@@H]2SC(C)(C)[C@@H]3C(=O)O)c2ccccc2)C(=O)C1=O` &field=viability returns 84.1

GET /value?item= `Cn1c(=O)c2ncn(CC(=O)NCCOc3ccccc3)c2n(C)c1=O` &field=viability returns 108

GET /value?item= `CCn1cc(C(=O)NCCN(C)CCc2ccccc2)c(=O)c2cc(S(=O)(=O)N(C)C)ccc21` &field=viability returns 75.9

GET /value?item= `COc1ccc(C(=O)NCCC(C)C)cc1S(=O)(=O)N1CCOCC1` &field=viability returns 98.8

GET /value?item= `CN(CC(=O)Nc1ccncc1)S(=O)(=O)c1ccccc1` &field=viability returns 110

GET /value?item= `N#Cc1nc(COc2ccccc2)oc1NCCN1CCOCC1` &field=viability returns 108

GET /value?item= `Cc1cccc(NCc2ccccc2O)c1` &field=viability returns 76.1

====

Protocol Description: reversal of MRP1-mediated doxorubicin resistance, pilot screen, H69AR cells, doxorubicin co-treatment (AID 601)
Reported Conditions: H69AR cells + 2 uM doxorubicin, CellTiter-Glo, 72 h; at 10 µM; hits give high values
Recorded Endpoint: differential viability (reversal) (%)
Answer format: numeric, % implied, no suffix.

GET /value?item= `Cc1cccc(-n2c(=O)cc(N3CCN(c4ccc(F)cc4)CC3)[nH]c2=O)c1` &field=differential viability (reversal) returns 0.095

GET /value?item= `Nc1c(C(=O)NCc2ccco2)nnn1Cc1ccccc1` &field=differential viability (reversal) returns 0.935

GET /value?item= `COc1ccc(-c2cc(N3CCCC3)n3ncnc3n2)cc1` &field=differential viability (reversal) returns 11.9

GET /value?item= `Cn1nc(CC(=O)Nc2ccc(N3CCN(C(=O)OC(C)(C)C)CC3)cc2)c2ccccc2c1=O` &field=differential viability (reversal) returns -3.22

GET /value?item= COc1cc2c(=O)nc3n(c2cc1OC)C(c1ccccc1)N=C(N)N3 (stereo not given) &field=differential viability (reversal) returns -2.35

GET /value?item= `CCOC(=O)Nc1nnc(-c2ccccc2OC)s1` &field=differential viability (reversal) returns 0.53

GET /value?item= `S=c1[nH]nc(Cc2ccccc2)n1Cc1ccco1` &field=differential viability (reversal) returns -2.76

GET /value?item= `O=S(=O)(c1ccc(S(=O)(=O)N(Cc2ccco2)Cc2ccccc2Cl)cc1)N1CCCC1` &field=differential viability (reversal) returns 12.4

GET /value?item= COc1cc(C2C3=C(CC(C)(C)CC3=O)Nc3c2c(=O)[nH]c(=O)n3Cc2ccccc2)ccc1O (stereo not given) &field=differential viability (reversal) returns 4.23

GET /value?item= `c1ccc(-c2ccc(-c3ccccn3)nn2)nc1` &field=differential viability (reversal) returns -10.1

GET /value?item= Cc1ccc2c(c1C)NC(C(=O)O)C1CC=CC21 (stereo not given) &field=differential viability (reversal) returns 1.46

GET /value?item= `CCOC(=O)NC(=O)CSc1nnnn1-c1ccc(Cl)cc1` &field=differential viability (reversal) returns 20.4

GET /value?item= O=C(CCCN1C(=O)c2ccccc2C1=O)N1CCC(c2ccccc2)C1 (stereo not given) &field=differential viability (reversal) returns -1.44

GET /value?item= `Cc1ccc(CNC(=O)CCCn2c(=O)c3ccccc3n(CC(=O)NCc3ccco3)c2=O)cc1` &field=differential viability (reversal) returns -1.43

GET /value?item= `COc1ccccc1N1CCN(C(=O)c2ccc3nc(-c4ccco4)c(-c4ccco4)nc3c2)CC1` &field=differential viability (reversal) returns -8.06

GET /value?item= `CCCN1Cc2cccc(C(=O)NC3CCCC3)c2C1=O` &field=differential viability (reversal) returns 5.09

GET /value?item= CC(Oc1ccccc1)C(=O)Nc1ccc(S(=O)(=O)NCC2CCCO2)cc1 (stereo not given) &field=differential viability (reversal) returns 4.12

GET /value?item= CCN(CCCCOC(=O)c1ccc(OC)c(OC)c1)C(C)Cc1ccc(OC)cc1 (stereo not given) &field=differential viability (reversal) returns 6.16

GET /value?item= CCOC(=O)N1CCC(N(C(=O)Nc2cccc(OC)c2)C(C)CC)CC1 (stereo not given) &field=differential viability (reversal) returns 1.43

GET /value?item= `O=C(CSc1nnc(-c2ccccc2)o1)N1CCN(c2ccccc2)CC1` &field=differential viability (reversal) returns 3.54

GET /value?item= `Cc1ccc(-c2ccc(SCC(=O)Nc3nonc3C)nn2)cc1` &field=differential viability (reversal) returns -4.68

GET /value?item= O=C(Nc1nc(-c2ccc(S(=O)(=O)N3CCCC3)cc2)cs1)C1COc2ccccc2O1 (stereo not given) &field=differential viability (reversal) returns -1.52

GET /value?item= `O=C(CSc1nnc(-c2ccco2)n1-c1ccccc1)N1CCN(C(=O)c2ccco2)CC1` &field=differential viability (reversal) returns -1.54

GET /value?item= `Oc1c(Cl)cc(Cl)cc1Sc1cc(Cl)cc(Cl)c1O` &field=differential viability (reversal) returns 0.46

GET /value?item= `COc1ccc(OC)c(-c2cc(C(=O)NCc3cccs3)no2)c1` &field=differential viability (reversal) returns 7.29

GET /value?item= `COc1cccc(-n2c(CNc3ccc(F)cc3)nnc2SCC(N)=O)c1` &field=differential viability (reversal) returns 8.77

GET /value?item= `CC(C)(C)c1ccc(O)c(N)c1` &field=differential viability (reversal) returns -0.85

GET /value?item= `Cc1ccc(Nc2cc(C)nc3nnnn23)cc1` &field=differential viability (reversal) returns 8.3

GET /value?item= `O=C(COc1ccccc1Cl)OCC(=O)N1CCN(S(=O)(=O)c2ccccc2)CC1` &field=differential viability (reversal) returns -1.84

GET /value?item= `CCC(=O)OC1(C#CCOc2ccc(OC)cc2)CCN(C)CC1` &field=differential viability (reversal) returns 1.41

GET /value?item= `CC(C)Cc1nc(N2CCN(C(=O)c3ccco3)CC2)c(C#N)c2c1CCC2` &field=differential viability (reversal) returns 2.99

GET /value?item= `COc1ccc(N2CCN(CCNS(=O)(=O)c3cccc4nsnc34)CC2)cc1` &field=differential viability (reversal) returns -2.98

GET /value?item= `CC(=O)c1ccc2c3c(cccc13)C(=O)N(c1c(C)nn(C)c1C)C2=O` &field=differential viability (reversal) returns 0.09

GET /value?item= O=C(NCc1ccccc1)C1CCCN(S(=O)(=O)c2cccnc2)C1 (stereo not given) &field=differential viability (reversal) returns 6.21

GET /value?item= O=C(CSc1nnc(-c2ccco2)n1CC1CCCO1)NC1CCCC1 (stereo not given) &field=differential viability (reversal) returns 7.47

GET /value?item= `Cc1ccnc(NC(=O)Nc2ccc(F)cc2)c1` &field=differential viability (reversal) returns 12.9

GET /value?item= `CCCCOC(=O)CSc1nc2c(cc1C#N)C(=O)CC(C)(C)C2` &field=differential viability (reversal) returns -10.6

GET /value?item= `CN1CCC(=C2c3ccccc3C=Cc3ccccc32)CC1` &field=differential viability (reversal) returns 9.07

GET /value?item= CCOCC(O)CS(=O)Cc1ccccc1 (stereo not given) &field=differential viability (reversal) returns 22.1

GET /value?item= CCc1ccccc1N1C(=O)C2CC(C)=C(C)CC2C1=O (stereo not given) &field=differential viability (reversal) returns 18

GET /value?item= `Cc1cc(C(=O)Nc2c(C)n(C)n(-c3ccccc3)c2=O)c(C)o1` &field=differential viability (reversal) returns 11.8

GET /value?item= `Cc1ccc(Cn2c(=N)c(C(=O)NCc3ccco3)cc3c(=O)n4ccccc4nc32)cc1` &field=differential viability (reversal) returns -0.275

GET /value?item= `Cc1cc(C)c(NC(=O)CSc2nnc(-c3ccncc3)n2Cc2ccco2)c(C)c1` &field=differential viability (reversal) returns 3.25

GET /value?item= `Cc1cc(C)n(S(=O)(=O)c2cc(C(=O)O)c(Cl)cc2Cl)n1` &field=differential viability (reversal) returns -10.2

GET /value?item= `O=C(Nc1ccc2oc(=O)ccc2c1)c1cccnc1` &field=differential viability (reversal) returns 14.6
